target: Neuropeptide Y receptor type 4 (Homo sapiens, UniProt P50391); experiment: Agonist activity at human neuropeptide Y Y4 receptor expressed in CHO-mtAEQ cells co-expressing Gqi5 by calcium aequorin assay; assay type: functional, cell-based
Sequence (P50391 whole entry): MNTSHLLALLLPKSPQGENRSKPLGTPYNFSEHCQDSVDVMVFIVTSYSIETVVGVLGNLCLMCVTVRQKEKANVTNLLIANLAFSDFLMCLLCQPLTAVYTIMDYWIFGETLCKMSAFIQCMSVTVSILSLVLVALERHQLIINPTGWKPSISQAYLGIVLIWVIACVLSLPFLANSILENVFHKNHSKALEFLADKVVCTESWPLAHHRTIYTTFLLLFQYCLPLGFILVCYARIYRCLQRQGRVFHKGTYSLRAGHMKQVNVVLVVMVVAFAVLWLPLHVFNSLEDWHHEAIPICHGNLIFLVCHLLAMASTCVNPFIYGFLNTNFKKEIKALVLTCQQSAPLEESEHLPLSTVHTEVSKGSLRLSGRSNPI
Residues, ends and D or L forms follow the SMILES beside them.
test readout: pEC50
As a rule, pEC50 stands for the negative log10 of the concentration, concentration in M.

molecule	test readout	observed value
CC(C)C[C@H](NC(=O)[C@@H]1CCCNC(=N)NC(=O)NCCCCNC(=O)CCC(=O)N[C@@H](CCCCN)C(=O)N[C@@H](Cc2ccc(O)cc2)C(=O)N1)C(=O)N[C@@H](CCCNC(=N)N)C(=O)N[C@@H](Cc1ccc(O)cc1)C(N)=O (HELM PEPTIDE1{K.Y.[N=C(NCCC[C@H](N[*:1])C(=O)[*:2])N[*:3]].L.R.Y.[am]}|CHEM1{[O=C(CCC(=O)[*:1])NCCCCNC(=O)[*:2]]}$PEPTIDE1,CHEM1,1:R1-1:R1|PEPTIDE1,CHEM1,3:R3-1:R2$$$V2.0)	pEC50	7.59

Now look at this entry.
QUERY: Field request: pEC50 | item: CC(C)C[C@H](NC(=O)[C@H](CCCNC(=N)N)NC(=O)[C@@H]1CCC(=O)N[C@@H](CCCNC(=N)N)C(=O)NCC(=O)N[C@@H](Cc2ccc(O)cc2)C(=O)N1)C(=O)N[C@@H](CCCNC(=N)N)C(=O)N[C@@H](Cc1ccc(O)cc1)C(N)=O (HELM PEPTIDE1{R.G.Y.E.R.L.R.Y.[am]}$PEPTIDE1,PEPTIDE1,1:R1-4:R3$$$V2.0)
RESULT: 6.17

###

target: Neuropeptide Y receptor type 4 (Homo sapiens); test: Displacement of [3H]UR-KK200 from human neuropeptide Y Y4 receptor expressed in CHO-mtAEQ cells co-expressing Gqi5 assessed as fold change in affinity measured after 90 mins by scintillation counting analysis relative to Ac-Arg-Tyr-Arg-Leu-Arg-Tyr-NH2; type: cell-based; conditions: filed as agonist
Starred links: 1 amine or outer side, 2 acyl side, 3 side chain; linkers in the order of their positions; H or OH if unused. Residues, ends and D or L forms follow the SMILES beside them. Groups on a side chain read outwards from the residue. *: point of attachment. Suc = O=C(CCC(=O)[*:2])[*:1]; NH(CH2)4NH2 = NCCCCN*; CO = O=C([*:1])[*:2]
test readout: fold change (FC)

The examples below pair each entry with its known result.
| molecule | fold change (FC) |
| --- | --- |
| CC(C)C[C@@H]1NC(=O)[C@H](CCCNC(=N)N)NC(=O)[C@H](Cc2ccc(O)cc2)NC(=O)[C@H](CCCNC(=N)N)NC(=O)CCC(=O)NCCCNC(=O)NC(=N)NCCC[C@@H](C(=O)N[C@@H](Cc2ccc(O)cc2)C(N)=O)NC1=O | -41 |
| CC(C)C[C@H](NC(=O)[C@@H]1CC(=O)NCC(=O)N[C@H](CCCNC(=N)N)C(=O)N[C@@H](CCCNC(=N)N)C(=O)N1)C(=O)N[C@@H](CCCNC(=N)N)C(=O)N[C@@H](Cc1ccc(O)cc1)C(N)=O | -50 |

[A] CC(C)C[C@H](NC(=O)[C@H](CCCNC(=N)NC(=O)NCCCCN)NC(=O)[C@H](Cc1ccc(O)cc1)NC(=O)[C@H](CCCCN)NC(=O)CCC(=O)O)C(=O)N[C@@H](CCCNC(=N)N)C(=O)N[C@@H](Cc1ccc(O)cc1)C(N)=O (Suc-KYR([CO-NH(CH2)4NH2])LRY-NH2)
[B] CC(C)C[C@H](NC(=O)[C@H](CCCNC(=N)NC(=O)NCCCCN)NC(=O)[C@H](Cc1ccc(O)cc1)NC(=O)[C@H](CCCNC(=N)N)NC(=O)CCC(=O)O)C(=O)N[C@@H](CCCNC(=N)N)C(=O)N[C@@H](Cc1ccc(O)cc1)C(N)=O
QUERY: Which entry has a larger number for fold change (FC), A or B ? Selection: enter the item's label.
RESULT: B
